# Test system: HCC1599
# Assay procedure: normalised response (% of control), CellTiter-Glo; higher = more viable cells (100 = DMSO, 0 = benzethonium chloride kill control)
# Experimental parameters: incubation time: 72 h
Mark rule met for reported normalised response of 80% or greater; mark rule not met for anything smaller.

| Molecule | Group |
| --- | --- |
| O=P1(N(CCCl)CCCl)NCCCO1 (configuration not stated) [Cyclophosphamide] (40000 nM) | rule met |
| O=C(/C=C/c1cccc(S(=O)(=O)Nc2ccccc2)c1)NO [Belinostat] (10000 nM) | rule not met |
| COC(=O)c1ccc2c(c1)NC(=O)/C2=C(\Nc1ccc(N(C)C(=O)CN2CCN(C)CC2)cc1)c1ccccc1 [Nintedanib] (10000 nM) | rule met |
| CCc1c2c(nc3ccc(OC(=O)N4CCC(N5CCCCC5)CC4)cc13)-c1cc3c(c(=O)n1C2)COC(=O)[C@]3(O)CC [Irinotecan] (10000 nM) | rule not met |
| Oc1ccc2c(c1)CC[C@H](c1ccccc1)[C@@H]2c1ccc(OCCN2CCCC2)cc1 [Lasofoxifene] (1000 nM) | rule met |

Q. Is normalised response at least 80%? Consider CNC(=O)c1cccc(-c2ccc3c(N4CCOC[C@@H]4C)nc(N4CCOC[C@@H]4C)nc3n2)c1 [AZD2014] (10000 nM)
A. rule not met

---

Recorded normalised viability by entry
# Tested on: MFM-223
# Assay procedure: normalised viability (% of control), CellTiter-Blue; higher = more viable cells (about 100 = DMSO control)
# Experimental parameters: 10 nM; incubation time: 72 h
State the answer as a number, implicitly in %.

Would you please look over these solved cases?
| Structure | Result value |
| --- | --- |
| N#Cc1ccc(COC[C@H]2O[C@@H](n3c(NCc4ccc(Cl)c(Cl)c4)nc4c(N)ncnc43)[C@H](O)[C@@H]2O)cc1 | 93 |
| COC(=O)c1ccc2c(c1)NC(=O)/C2=C(\Nc1ccc(N(C)C(=O)CN2CCN(C)CC2)cc1)c1ccccc1 | 99.5 |
| O=C(/C=C/c1cccc(S(=O)(=O)Nc2ccccc2)c1)NO | 87.8 |
| NC(=O)c1ccc(I)c([N+](=O)[O-])c1 | 93.9 |

// next entry
Q. Which normalised viability is reported with MFM-223 for this entry: c1ccc2c(CCNc3ccc(Nc4ccncc4)cc3)c[nH]c2c1 ?
A. 83.2

---

Recorded drug sensitivity score by entry
# Test system: DU-4475
# Assay procedure: drug sensitivity score (DSS), CellTiter-Glo (DSS (AUC-based score)); higher = stronger drug effect (viability inhibition or cytotoxicity); extreme values may be limits of the assay
# Experimental parameters: incubation time: 72 h
Write the value as a bare number.

Would you please look over these solved cases?
| Molecule | Target or test system | drug sensitivity score |
| --- | --- | --- |
| CN(C)CCOc1ccc(/C(=C(/CCCl)c2ccccc2)c2ccccc2)cc1 | DU-4475 | 0 |
| Oc1ccc2c(c1)CC[C@H](c1ccccc1)[C@@H]2c1ccc(OCCN2CCCC2)cc1 | DU-4475 | 0 |
| COC(=O)c1ccc2c(c1)NC(=O)/C2=C(\Nc1ccc(N(C)C(=O)CN2CCN(C)CC2)cc1)c1ccccc1 | DU-4475 | 0 |

Q. Any idea what drug sensitivity score was measured for C=C1C[C@@H]2[C@H](CC[C@]3(C)C(=O)CC[C@@H]23)[C@@]2(C)C=CC(=O)C=C12 ?
A. 0

Q. Any idea what drug sensitivity score was measured for COCC1(CO)C(=O)C2CCN1CC2 (centres undefined) ?
A. 0

Q. Any idea what drug sensitivity score was measured for O=C(Nc1ccncc1)C(=O)c1cn(Cc2ccc(Cl)cc2)c2ccccc12 ?
A. 1.15

---

Recorded normalised viability by entry
# Test system: BT-549
# Assay procedure: normalised viability (% of control), CellTiter-Blue; higher = more viable cells (about 100 = DMSO control)
# Experimental parameters: 10000 nM; incubation time: 72 h
State the answer as a number, implicitly in %.

Q. Any idea what normalised viability was measured for COC(=O)c1ccc2c(c1)NC(=O)/C2=C(\Nc1ccc(N(C)C(=O)CN2CCN(C)CC2)cc1)c1ccccc1 ?
A. 16.4

Q. Any idea what normalised viability was measured for c1ccc2c(CCNc3ccc(Nc4ccncc4)cc3)c[nH]c2c1 ?
A. 26.5

Q. Any idea what normalised viability was measured for CN(C)c1nc(N(C)C)nc(N(C)C)n1 ?
A. 93.4

Q. Any idea what normalised viability was measured for O=C(Nc1ccncc1)C(=O)c1cn(Cc2ccc(Cl)cc2)c2ccccc12 ?
A. 23.5

Q. Any idea what normalised viability was measured for COc1cc2/c(=N/c3ccc(Br)cc3F)nc[nH]c2cc1OCC1CCN(C)CC1 ?
A. 22.4

---

# Tested on: HCC1937
# Assay procedure: normalised viability (% of control), CellTiter-Blue; higher = more viable cells (100 = DMSO, 0 = benzethonium chloride kill control)
# Experimental parameters: incubation time: 72 h
Recorded normalised viability by entry
State the answer as a number, implicitly in %.

Would you please look over these solved cases?
| Compound | Target or test system | Result value |
| --- | --- | --- |
| NC(=O)c1ccc(I)c([N+](=O)[O-])c1 [Iniparib] (1 nM) | HCC1937 | 130 |
| Cc1cc(Nc2cc(CN3CCOCC3)c3nc(C)c(Cc4ccc(Cl)cc4F)n3n2)n[nH]1 (1 nM) | HCC1937 | 85.9 |

Q. Any idea what normalised viability was measured for O=C(Nc1cccnc1)N1CCC(Cc2cccc(Oc3ccc(C(F)(F)F)cn3)c2)CC1 [PF-3845] (1 nM) ?
A. 91.6

Q. Any idea what normalised viability was measured for COC(=O)c1ccc2c(c1)NC(=O)/C2=C(\Nc1ccc(N(C)C(=O)CN2CCN(C)CC2)cc1)c1ccccc1 [BIBF 1120] (1 nM) ?
A. 117

Q. Any idea what normalised viability was measured for O=P1(N(CCCl)CCCl)NCCCO1 (stereo not given) [Cyclophosphamide] (4 nM) ?
A. 82.9

---

# Tested on: DU-4475
# Assay procedure: normalised viability (% of control), CellTiter-Blue; higher = more viable cells (about 100 = DMSO control)
# Experimental parameters: 3 nM; incubation time: 72 h
Recorded normalised viability by entry
State the answer as a number, implicitly in %.

| Structure | Outcome measure | Result value |
| --- | --- | --- |
| Cc1cc(Nc2cc(CN3CCOCC3)c3nc(C)c(Cc4ccc(Cl)cc4F)n3n2)n[nH]1 | normalised viability | 110 |

Q. Any idea what normalised viability was measured for CN(C)CCOc1ccc(/C(=C(/CCCl)c2ccccc2)c2ccccc2)cc1 ?
A. 110

Q. Any idea what normalised viability was measured for O=C(Nc1ccncc1)C(=O)c1cn(Cc2ccc(Cl)cc2)c2ccccc12 ?
A. 111

Q. Any idea what normalised viability was measured for COc1cc2/c(=N/c3ccc(Br)cc3F)nc[nH]c2cc1OCC1CCN(C)CC1 ?
A. 108

Q. Any idea what normalised viability was measured for CN(C)c1nc(N(C)C)nc(N(C)C)n1 ?
A. 94.6

Q. Any idea what normalised viability was measured for CNC(=O)c1cc(Oc2ccc(NC(=O)Nc3ccc(Cl)c(C(F)(F)F)c3)c(F)c2)ccn1 ?
A. 114

Q. Any idea what normalised viability was measured for O=C(/C=C/c1cccc(S(=O)(=O)Nc2ccccc2)c1)NO ?
A. 99.9

Q. Any idea what normalised viability was measured for CO[C@H]1C[C@@H]2CC[C@@H](C)[C@@](O)(O2)C(=O)C(=O)N2CCCC[C@H]2C(=O)O[C@H]([C@H](C)C[C@@H]2CC[C@@H](OP(C)(C)=O)[C@H](OC)C2)CC(=O)[C@H](C)/C=C(\C)[C@@H](O)[C@@H](OC)C(=O)[C@H](C)C[C@H](C)/C=C/C=C/C=C/1C ?
A. 61.7

Q. Any idea what normalised viability was measured for CC(C)C[C@@H](C(=O)N[C@H](C(=O)OC1CCCC1)c1ccccc1)[C@H](O)C(=O)NO ?
A. 95.7

Q. Any idea what normalised viability was measured for Cc1[nH]c2ccccc2c1CCNCc1ccc(/C=C/C(=O)NO)cc1 ?
A. 92.4

---

# Tested on: HCC1599
# Experimental parameters: 72 h
Recorded EC50, CellTiter-Glo by entry
State the answer as a number, implicitly in nM.

Would you please look over these solved cases?
| Structure | Units symbol | EC50, CellTiter-Glo |
| --- | --- | --- |
| COc1cc(O)c2c(c1)/C=C/C[C@H](O)[C@H](O)C(=O)/C=C\C[C@H](C)OC2=O | nM | 5830 |
| CNC(=O)c1cccc(-c2ccc3c(N4CCOC[C@@H]4C)nc(N4CCOC[C@@H]4C)nc3n2)c1 | nM | 3620 |
| COc1cc(OC2CCN(C)CC2)ccc1Nc1ncc2c(n1)n(C1CCCC1)c(=O)n2C | nM | 8240 |

Q. Any idea what EC50, CellTiter-Glo was measured for O=C(Nc1ccncc1)C(=O)c1cn(Cc2ccc(Cl)cc2)c2ccccc12 ?
A. 129

Q. Any idea what EC50, CellTiter-Glo was measured for COCC[n+]1c2c(n(Cc3cnccn3)c1C)C(=O)c1ccccc1C2=O ?
A. 7.29

Q. Any idea what EC50, CellTiter-Glo was measured for Cc1[nH]c2ccccc2c1CCNCc1ccc(/C=C/C(=O)NO)cc1 ?
A. 46.4
